Assignment: determine reported kon for the given binders.
# Experimental System: T1, recombinant human TRAIL R2 (DR5)/Fc chimera (human, UniProt O14763 54-182)
# T1 construct: bought (R&D Systems); not shown: Fc of the bought chimera (R&D Systems)
# Test Name: SPR (Biacore), DR5-Fc captured by anti-Fc, ATRIMER analyte; apparent
Number first, unit second: that is the form wanted.

Solved cases (4 shown):
Binder	kon
029-15.A3C (designed binder, ATRIMER; also called 4a8c) EPPTQKPKKIVNAKKDVVNTKMFEELKSRLDTLAQEVALLKEQQALQTVCLKGTKVHMKCFLAFTQTKTFHEASEDCISRGGTLSTPQTGSENDALYEYLRQSVGNEAEIWLGLNRATLRPRWVDMTGARIAYKNWETEITAQPDGGKNCAVLSGAANGKWFDKRCRDQLPYICQFGIV	63000 M⁻¹ s⁻¹
029-15.B9F (designed binder, ATRIMER; also called 2a1a) EPPTQKPKKIVNAKKDVVNTKMFEELKSRLDTLAQEVALLKEQQALQTVCLKGTKVHMKCFLAFTQTKTFHEASEDCISRGGTLSTPQTGSENDALYEYLRQSVGNEAEIWLGLNKRVWYRGWVDMTGARIAYKNWETEITAQPDGGMRRRRENCAVLSGAANGKWFDKRCRDQLPYICQFGIV	43800 M⁻¹ s⁻¹
029-15.B3D (designed binder, ATRIMER; also called 9b3d) EPPTQKPKKIVNAKKDVVNTKMFEELKSRLDTLAQEVALLKEQQALQTVCLKGTKVHMKCFLAFTQTKTFHEASEDCISRGGTLSTPQTGSENDALYEYLRQSVGNEAEIWLGLNELRTDGLWVDMTGARIAYKNWETEITAQPDGGVMRRSENCAVLSGAANGKWFDKRCRDQLPYICQFGIV	116 M⁻¹ s⁻¹
029-15.A1H (designed binder, ATRIMER; also called 8b6b) EPPTQKPKKIVNAKKDVVNTKMFEELKSRLDTLAQEVALLKEQQALQTVCLKGTKVHMKCFLAFTQTKTFHEASEDCISRGGTLSTPQTGSENDALYEYLRQSVGNEAEIWLGLNRAVLRPRWVDMTGARIAYKNWETEITAQPDGGWVLGGKNCAVLSGAANGKWFDKRCRDQLPYICQFGIV	12900 M⁻¹ s⁻¹

Turning now to a further binder:
Lookup: Reported kon, binder 029-15.A8G (designed binder, ATRIMER; also called 1a7b) EPPTQKPKKIVNAKKDVVNTKMFEELKSRLDTLAQEVALLKEQQALQTVCLKGTKVHMKCFLAFTQTKTFHEASEDCISRGGTLSTPQTGSENDALYEYLRQSVGNEAEIWLGLNRAWLRPRWVDMTGARIAYKNWETEITAQPDGGTLVSGENCAVLSGAANGKWFDKRCRDQLPYICQFGIV : ____
Found: 40500 M⁻¹ s⁻¹

All values here come from patent US20120021995A1.
